So I've got a bunch of binders here, and I need their pIC50 values.
# measurement-target: SARS-COV2-S1 RBD (mouse IgG2Fc tag) (SARS-CoV-2, UniProt P0DTC2 319-537)
pIC50 is a log-scale quantity: -log10 of the concentration expressed in molar.

Give its pIC50 value. Item: variant 5-55 (Fc fusion) VHH: EVQLVESGGGLVQPGGSLRLSCAASGIDVNRNAMGWFRQAPGKEREFVAAITWSGGWRYYADSVKGRFTISADNSKNTAYLQMNSLKPEDTAVYYCATTFGDAGIPDQYDFGWGQGTLVTVSS
8.84

Give its pIC50 value. Item: variant 5-60 (Fc fusion) VHH: EVQLVESGGGLVQPGGSLRLSCAASGRSFSSHRMGWFRQAPGKEREFVAAIMWSGSHRNYADSVKGRFTISADNSKNTAYLQMNSLKPEDTAVYYCAAIAYEEGVYRWDWGQGTLVTVSS
8.67
